# Target of assay: Grb2 SH2 (UniProt P62993)
# Sequence (P62993 whole entry, looked up, the tested form may be a part): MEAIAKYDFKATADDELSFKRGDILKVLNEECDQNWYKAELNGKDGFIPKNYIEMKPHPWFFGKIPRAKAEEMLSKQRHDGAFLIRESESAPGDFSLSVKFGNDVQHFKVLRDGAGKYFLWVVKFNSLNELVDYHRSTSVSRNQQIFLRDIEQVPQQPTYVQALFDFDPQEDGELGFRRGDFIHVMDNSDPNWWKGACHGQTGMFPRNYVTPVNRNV
# Experiment summary: SH2 binding enrichment of the phosphorylated peptide, bacterial display (enrichment ratio); higher = better substrate or ligand; peptides without Tyr show the background;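 further: peptide library displayed on the E. coli surface as eCPX fusions, selected cells deep-sequenced, score is each peptide's frequency after selection divided by its frequency in the input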
Kindly supply the reported SH2 binding enrichment values for the records listed here.

# Sequence data, SH2 binding enrichment
rows = [
    ("WNRDKYAATTT [TRIM39_Y439_G436R]", 0.772),
    ("SVTCTDSPALN [TP53_Y126_Y126D]", 0.667),
    ("GDYYRYLAEVA [YWHAG_Y133]", 1.02),
    ("RLLVVFPWTQR [HBB_Y36_Y36F]", 1.94),
    ("SPPILYSFYLD [FCRL6_Y239]", 1.28),
    ("HLTNQFMQRVA [PABPC4_Y382_Y382F]", 1.16),
]

Give me SH2 binding enrichment for each of these sequences, listed below.
1. FLNSIYQSRDE [ROS1_Y2227_K2228Q]
2. STFVPYEIKVQ [L1CAM_Y784]
3. FEEDSYSHIMA [FDPS_Y388_YF]
4. GKFFQYDTWNQ [IGF2_Y116_K120N]

0.789
0.85
0.718
0.746
